- TEST_DESCRIPTION: modulators of CIT2-GFP expression in yeast, primary screen, S. cerevisiae, GFP fusion, multiplex flow cytometry, MLPCN library (AID 2029);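 also: ratio of well median GFP fluorescence to mean of DMSO wells on the plate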
- REPORTED_CONDITIONS: S. cerevisiae CIT2-GFP strain, 3 h, at 10 µM, 100 means same as DMSO wells
The whole screen tested about 320,000 compounds, of which about 210 (0.066%) were called active.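 The calls were made as follows: active = GFP response relative to DMSO above a set limit, near the screen mean plus 3 SD (cut at about 150% in these data); inconclusive = Fewer than 70 cells measured for a yeast strain; inactive = the rest.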 The sample holds actives, similar compounds and a random draw of the others, so the mix is not that of the screen.
Write down one outcome, taken from active, inactive

Here's what some known entries look like.
{"MOLECULE": "N#Cc1nc(N)nc(N(c2ccccc2)c2ccccc2)n1", "ASSIGNED_CATEGORY": "inactive"}
{"MOLECULE": "Cc1cccc[n+]1CC(=O)c1ccccc1", "ASSIGNED_CATEGORY": "inactive"}
{"MOLECULE": "Cc1ccc2c(=O)oc(N(C)C)nc2c1", "ASSIGNED_CATEGORY": "inactive"}
{"MOLECULE": "O=S(=O)(c1ccc(Br)cc1)n1ccc2ccccc21", "ASSIGNED_CATEGORY": "inactive"}
{"MOLECULE": "CCCCOc1ccc(C(=O)NCC(=O)OCC(=O)c2c(N)n(C)c(=O)n(C)c2=O)cc1", "ASSIGNED_CATEGORY": "inactive"}
{"MOLECULE": "Cc1cccc(NS(=O)(=O)c2ccc(C)c(C(=O)NCc3cccnc3)c2)c1", "ASSIGNED_CATEGORY": "inactive"}
{"MOLECULE": "COc1ccc(CCNC(=O)C(=O)Nc2ccc3nc4n(c(=O)c3c2)CCCCC4)cc1OC", "ASSIGNED_CATEGORY": "inactive"}
{"MOLECULE": "C[n+]1ccc(/C=C/c2c[nH]c3ccccc23)cc1", "ASSIGNED_CATEGORY": "active"}
{"MOLECULE": "O=C(NC1CCN(C(=S)Nc2ccc(Cl)cc2)CC1)C1CCCCC1", "ASSIGNED_CATEGORY": "inactive"}
{"MOLECULE": "CCC(C)(C)NC(=O)CN(C(=O)CCC(=O)Nc1nccs1)c1ccc2c(c1)OCO2", "ASSIGNED_CATEGORY": "inactive"}

Ask | Returns: the outcome recorded for Cc1noc(C)c1CSc1nc2cc(S(=O)(=O)N3CCOCC3)ccc2o1 in this assay.
Reply | inactive

Ask | Answer briefly: the call reported for COCCCNC(=O)[C@H]1N2C(=O)c3ccccc3C2SC1(C)C (some centres undefined) in this assay.
Reply | inactive

Ask | Per the records of this test, what outcome belongs to O=C(O)C1CCN(C(=O)c2cc(F)cc3c2OCOC3)CC1 ?
Reply | inactive

* * *

- TEST_DESCRIPTION: modulators of CIT2-GFP expression in yeast, primary screen, S. cerevisiae, GFP fusion, multiplex flow cytometry, MLPCN library (AID 2029);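 also: ratio of well median GFP fluorescence to mean of DMSO wells on the plate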
- REPORTED_CONDITIONS: S. cerevisiae CIT2-GFP strain, 3 h, at 10 µM, 100 means same as DMSO wells
Out of some 320,000 compounds screened, about 210 (0.066%) were called active.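 Rule for the calls: active = GFP response relative to DMSO above a set limit, near the screen mean plus 3 SD (cut at about 150% in these data); inconclusive = Fewer than 70 cells measured for a yeast strain; inactive = the rest.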 Only a selection was taken, and actives are over-represented in it overall.
Respond only with the outcome that fits, drawn from 1.0 (active), 0.0 (inactive)

Known results for molecules:
{"MOLECULE": "O=C(c1ccco1)N1CCN(C(=O)C2CC(c3ccc(Cl)c(Cl)c3)=NO2)CC1 (stereo unspecified)", "ASSIGNED_CATEGORY": 0.0}
{"MOLECULE": "CCCCC[C@@H]1C=C(C(=O)O)[C@H](c2ccc(C#N)cc2)N1S(=O)(=O)c1ccc(C)cc1", "ASSIGNED_CATEGORY": 0.0}
{"MOLECULE": "CC(C)=CCN1CCN(CCCc2ccccc2)CC1CCO (stereo unspecified)", "ASSIGNED_CATEGORY": 0.0}
{"MOLECULE": "COc1cccc(-c2nc(CS(=O)(=O)CC(=O)NCCc3ccc(OC)c(OC)c3)c(C)o2)c1", "ASSIGNED_CATEGORY": 0.0}
{"MOLECULE": "O=C(Nc1ccc(Cl)cc1)c1cc2nc(C3CC3)cc(C(F)(F)F)n2n1", "ASSIGNED_CATEGORY": 0.0}
{"MOLECULE": "CN(C)S(=O)(=O)c1cc(C(=O)Nc2ccn(C)n2)c(Cl)cc1Cl", "ASSIGNED_CATEGORY": 1.0}

Ask | Which outcome did this test record for the molecule CCCN(C(=O)CSc1nnc(N)s1)c1c(N)n(Cc2ccccc2)c(=O)[nH]c1=O ?
Reply | 0.0

Ask | Could you kindly confirm the outcome this assay logged for COc1ccc(-c2nc(CS(=O)(=O)CC(=O)NCc3cccc(Br)c3)c(C)o2)cc1 ?
Reply | 1.0

Ask | Could you please tell me the result logged for O=C(NCC(F)(F)F)Nc1nnc(C(F)(F)F)s1 in this assay?
Reply | 0.0

Ask | Please state the recorded outcome for this molecule: CCOC(=O)/C=c1\s/c(=C\c2ccc(C#N)cc2)c(=O)n1CC(=O)Nc1cccc(C)c1C
Reply | 0.0

Ask | For Cc1ccc(-c2nc(CS(=O)(=O)CC(=O)NCc3ccc4c(c3)OCO4)c(C)o2)cc1 , which call appears in the assay record?
Reply | 0.0
